Tested on: mtOXPHOS transcripts
Type: cell-based, mouse
COND: composite Z-score vs mock-treated (DMSO) wells; Conc 20 μM
Label Not satisfied if mitoOX falls below -0.2; label Satisfied in every other case.

COMPOUND	TARGET	CLASS NAME
COc1ccc([C@H]2Oc3c(I)c(OC)cc(OC)c3C[C@@H]2O)cc1OC [8-iodocatechin tetramethyl ether, reference compound]	mtOXPHOS transcripts	Not satisfied
COc1ccc([C@@H](C)C(=O)c2ccc(O)cc2O)cc1 [(R)-angolensin]	mtOXPHOS transcripts	Not satisfied
COc1c(O)cc(O)cc1O [iretol]	mtOXPHOS transcripts	Not satisfied
COc1cc(O)c(C(=O)c2ccccc2)cc1O [cearoin]	mtOXPHOS transcripts	Not satisfied
COc1cccc2c1CCC1=CC(=O)CCC12C (stereo not shown)	mtOXPHOS transcripts	Not satisfied
CC1=CC(=O)[C@H]2C(C)(C)CCC[C@]2(C)[C@@]1(O)CCc1ccoc1 [solidagenone]	mtOXPHOS transcripts	Satisfied
CCC(=O)OC1[C@@H]2CC3=C4CC(=O)O[C@@H](c5ccoc5)[C@]4(C)CCC3[C@@](C)(C2=O)[C@@H](CC(=O)OC)C1(C)C (stereo partly shown) [khayasin C]	mtOXPHOS transcripts	Satisfied
